// data source = PubChem BioAssay (NCI)

system: SN12C renal; assay: NCI-60 one-dose screen, 48 h; details: 10 µM unless noted
Compounds without any hit were thinned out: in the full panel of roughly 83,000, 20% have a hit. Active and inactive are the calls of the source. The calls were made as follows: active = growth percent below 10; inactive = the rest.
Reply using exactly one outcome from yes = active, no = inactive

{"compound": "C/C(=N/N)c1nnn(-c2ccc(Br)cc2)c1C", "label_value": "no"}
{"compound": "CCCc1cc2cc(-n3nc(CC)c4c3CC(C)(C)CC4=O)cc(NC3CCC(O)CC3)c2c(=O)[nH]1 (stereo unspecified)", "label_value": "yes"}
{"compound": "O=C1C(N2CCN(c3ccccc3)CC2)=C(Cl)C(=O)c2ncccc21", "label_value": "no"}
{"compound": "O=C(/C=C/c1ccc(Cl)c(Cl)c1)Nc1ncc(Cc2ccc(Cl)c(Cl)c2)s1", "label_value": "no"}

Task: Test call for this compound, please: C1=CC(c2nn3c(-c4ccccc4)nnc3s2)=Cc2ccccc2O1
Output: no

Task: Test call for this compound, please: CN1CCN(CCCCCC(=O)Nc2nc(-c3cccc(NS(=O)(=O)c4cccc5c(N(C)C)cccc45)c3)cs2)CC1
Output: no

Task: Test call for this compound, please: COc1cc(C(C)=C(c2ccc(OCCN(C)C)cc2)c2ccc(OCCN(C)C)cc2)ccc1F
Output: no

Task: Test call for this compound, please: O=[N+]([O-])c1ccc(NC(=S)NNC(=S)Nc2ccc(Br)cc2)cc1
Output: no

Task: Test call for this compound, please: Cc1cc(C)cc(NC2=C(Cl)C(=O)c3nc(C)ccc3C2=O)c1
Output: yes

Task: Test call for this compound, please: O=c1[nH][nH]c(-c2ccc(F)cc2)c1-c1nc2ccccc2s1
Output: no

Task: Test call for this compound, please: O=[N+]([O-])c1ccc(NC(=S)NNC(=S)Nc2ccc(F)cc2)cc1
Output: no

* * *

test system: SNB-19 CNS; assay: NCI-60 one-dose screen, 48 h; conditions: 10 µM unless noted
About 83,000 compounds went through this panel and 20% of them were active in at least one assay; those are over-represented in the sample as a whole. Activity calls are given as the source filed them. How the source made its calls: active means growth percent below 10; inactive means the rest.
Reply using exactly one outcome from TRUE for active, FALSE for inactive

{"compound": "COc1cc2oc(-c3cccc(NC(=O)[C@@H](N)C(C)C)c3)cc(=O)c2c(OC)c1OC", "label_value": "FALSE"}

Task: Test call for this compound, please: O=C(/C=C/c1cc(Cl)ccc1Cl)Nc1ncc(Cc2ccc(Cl)cc2)s1
Output: FALSE

Task: Test call for this compound, please: CS(=O)(=O)c1ccc(/C(=N/N=C(N)N)c2ccc(F)cc2)cc1
Output: FALSE

Task: Test call for this compound, please: CN1CCN(Cc2ccc(NC(=O)c3cncc(C#Cc4cnc5ccc(N6CCOCC6)nn45)c3)cc2C(F)(F)F)CC1
Output: TRUE

Task: Test call for this compound, please: Cc1[nH]c(C(=O)Nc2ccccc2OCc2cccc(C(=O)NC3CCNC3)c2)c(Cl)c1Cl (configuration not stated)
Output: TRUE

Task: Test call for this compound, please: O=S(=O)(Oc1ccc(-c2cn3ccsc3n2)cc1)c1cccc(C(F)(F)F)c1
Output: FALSE

Task: Test call for this compound, please: CC1(C)CC[C@]2(C(=O)NCCCCCCN(CCCN)CCCN)CC[C@]3(C)C(=CC[C@@H]4[C@@]5(C)CC[C@H](O)C(C)(C)[C@@H]5CC[C@]43C)[C@@H]2C1
Output: FALSE

Task: Test call for this compound, please: C#CCOc1cccc(-c2nc(N)nc(Nc3ccccc3SSc3ccccc3Nc3nc(N)nc(-c4cccc(OCC#C)c4)n3)n2)c1
Output: TRUE

Task: Test call for this compound, please: CCN(CC)c1ccc(/C=N/NC(=O)c2ccc(S(N)(=O)=O)cc2)c(O)c1
Output: FALSE

Task: Test call for this compound, please: NC1C2CCC1CN(c1cnc(C(=O)Nc3cc(F)cc4cccnc34)cn1)C2 (configuration not stated)
Output: FALSE

Task: Test call for this compound, please: Cc1csc(/N=C(N)/N=C(\N)c2cccc(C#N)c2)n1
Output: FALSE

Task: Test call for this compound, please: COc1ccc(C2C(C#N)=C(/N=C/c3ccc(Cl)cc3)Oc3c2sc2c(C)cccc32)cc1 (configuration not stated)
Output: FALSE
